Source listed as ChEMBL document CHEMBL2146426.

system: Enterococcus faecalis; experiment: Antibacterial activity against Enterococcus faecalis ATCC 3186 after overnight incubation by microbroth dilution technique; format: functional

compound: O=C1COCCN1c1ccc(C2CC(c3ccc([N+](=O)[O-])o3)=NO2)cn1 (stereo unspecified)
quantity.unit: µg/mL
inequality.sign: >
MIC: 200
//
compound: CN1CCN(c2ccc(C3CC(c4ccc([N+](=O)[O-])o4)=NO3)cn2)C(=O)C1 (stereo unspecified)
quantity.unit: µg/mL
inequality.sign: =
MIC: 100
//
compound: O=C1COCCN1c1ccc(C2CC(c3ccc([N+](=O)[O-])o3)=NO2)cc1F (stereo unspecified)
quantity.unit: µg/mL
inequality.sign: =
MIC: 200
//
compound: O=[N+]([O-])c1ccc(C2=NOC(c3ccc(N4CC[S+]([O-])CC4)cc3)C2)o1 (stereo unspecified)
quantity.unit: µg/mL
inequality.sign: =
MIC: 100
//
compound: CN1CCN(c2ccc(C3CC(c4ccc([N+](=O)[O-])o4)=NO3)cc2F)C(=O)C1 (stereo unspecified)
quantity.unit: µg/mL
inequality.sign: =
MIC: 100
//
compound: O=[N+]([O-])c1ccc(C2=NOC(c3ccc(N4CCSCC4)cc3)C2)o1 (stereo unspecified)
quantity.unit: µg/mL
inequality.sign: =
MIC: 100
//
compound: O=[N+]([O-])c1ccc(C2=NOC(c3ccc(N4CCOCC4)cc3)C2)o1 (stereo unspecified)
quantity.unit: µg/mL
inequality.sign: >
MIC: 200
//
compound: O=[N+]([O-])c1ccc(C2=NOC(c3ccc(N4CCOCC4)c(F)c3)C2)o1 (stereo unspecified)
quantity.unit: µg/mL
inequality.sign: =
MIC: 200
//
compound: O=C1COCCN1c1ccc(C2CC(c3ccc([N+](=O)[O-])o3)=NO2)cc1 (stereo unspecified)
quantity.unit: µg/mL
inequality.sign: >
MIC: 200
//
compound: O=[N+]([O-])c1ccc(C2=NOC(c3ccc(N4CCCCC4)cc3)C2)o1 (stereo unspecified)
quantity.unit: µg/mL
inequality.sign: >
MIC: 200
//
compound: CN1CCN(c2ccc(C3CC(c4ccc([N+](=O)[O-])o4)=NO3)cc2)C(=O)C1 (stereo unspecified)
quantity.unit: µg/mL
inequality.sign: =
MIC: 100
